target: BRAF G466V (Homo sapiens, UniProt P15056, G466V); construct: expressed in transfected cells; assay: Cellular assay of target protein degradation, T-Rex 293 cells stably transfected with HA-BRAF G466V (HA immunofluorescence, high content imaging); format: cell-based; conditions: half maximal degradation, T-Rex 293 HA-BRAF G466V; read-out: BRaf G466V DC50
Sequence (P15056 whole entry G466V): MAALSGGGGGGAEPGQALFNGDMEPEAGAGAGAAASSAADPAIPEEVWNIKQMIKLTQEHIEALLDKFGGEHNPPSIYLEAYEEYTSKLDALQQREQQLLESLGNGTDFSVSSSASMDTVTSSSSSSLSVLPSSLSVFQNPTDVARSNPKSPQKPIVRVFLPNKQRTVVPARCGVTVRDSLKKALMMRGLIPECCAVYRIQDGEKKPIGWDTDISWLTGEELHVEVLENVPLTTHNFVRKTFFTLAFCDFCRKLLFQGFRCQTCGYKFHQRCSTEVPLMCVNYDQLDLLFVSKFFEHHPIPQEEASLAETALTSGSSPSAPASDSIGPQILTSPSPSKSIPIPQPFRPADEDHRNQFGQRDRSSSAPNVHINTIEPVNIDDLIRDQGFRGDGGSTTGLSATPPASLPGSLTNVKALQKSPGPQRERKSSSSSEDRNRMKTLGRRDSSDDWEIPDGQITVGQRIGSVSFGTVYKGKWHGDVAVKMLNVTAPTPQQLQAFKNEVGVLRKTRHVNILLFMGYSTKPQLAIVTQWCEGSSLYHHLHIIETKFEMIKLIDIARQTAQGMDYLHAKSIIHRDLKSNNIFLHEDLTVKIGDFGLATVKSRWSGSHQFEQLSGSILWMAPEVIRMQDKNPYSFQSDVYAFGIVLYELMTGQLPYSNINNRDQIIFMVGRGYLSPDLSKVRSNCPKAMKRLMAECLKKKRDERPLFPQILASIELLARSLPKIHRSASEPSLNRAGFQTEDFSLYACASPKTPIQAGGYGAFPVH
READOUT_TYPE: DC50

The cases that follow already have their DC50 on record.
[
  {
    "COMPOUND": "CCCS(=O)(=O)Nc1ccc(F)c(C(=O)c2c[nH]c3ncc(-c4ccc(N5CCC(CN6CCC(c7ccc8c(c7)CN([C@H]7CCC(=O)NC7=O)C8=O)CC6)CC5)cc4)cc23)c1F",
    "DC50": "< 1 nM"
  },
  {
    "COMPOUND": "N#Cc1cc(-c2cnc3[nH]cc(C(=O)c4c(F)ccc(NS(=O)(=O)N5CC[C@@H](F)C5)c4F)c3c2)cc(C#N)c1N1CCC(CN2CCC(c3ccc4c(c3)CN([C@H]3CCC(=O)NC3=O)C4=O)CC2)CC1",
    "DC50": "1 to 10 nM"
  },
  {
    "COMPOUND": "O=C1CC[C@@H](N2Cc3cc(C4CCN(CC5CCN(c6ccc(-c7cnc8[nH]cc(C(=O)c9c(F)ccc(NS(=O)(=O)N%10CC[C@@H](F)C%10)c9F)c8c7)cc6F)CC5)CC4)ccc3C2=O)C(=O)N1",
    "DC50": "< 1 nM"
  },
  {
    "COMPOUND": "CN(CCN1CCN(c2ccc3c(c2)CN(C2CCC(=O)NC2=O)C3=O)CC1)[C@H]1CC[C@H](Oc2ccc(-c3cnc4[nH]cc(C(=O)c5c(F)ccc(NS(=O)(=O)N6CC[C@@H](F)C6)c5F)c4c3)cc2)CC1 (stereo partly drawn)",
    "DC50": "1 to 10 nM"
  },
  {
    "COMPOUND": "N#Cc1cc(-c2cnc3[nH]cc(C(=O)c4c(F)ccc(NS(=O)(=O)N5CC[C@@H](F)C5)c4F)c3c2)cc(C#N)c1N1CCC(CN2CCC(c3ccc4c(c3)CN(C3CCC(=O)NC3=O)C4=O)CC2)CC1 (stereo partly drawn)",
    "DC50": "1 to 10 nM"
  },
  {
    "COMPOUND": "O=C1CCC(N2Cc3cc(N4CCN(c5cc(N6CCN(c7ccc(-c8cnc9[nH]cc(C(=O)c%10c(F)ccc(NS(=O)(=O)N%11CC[C@@H](F)C%11)c%10F)c9c8)cc7)CC6)ncn5)CC4)ccc3C2=O)C(=O)N1 (stereo partly drawn)",
    "DC50": "1 to 10 nM"
  },
  {
    "COMPOUND": "O=C1CCC(N2Cc3cc(N4CC(C5CN(c6ccc(-c7cnc8[nH]cc(C(=O)c9c(F)ccc(NS(=O)(=O)N%10CC[C@@H](F)C%10)c9F)c8c7)cc6)C5)C4)ccc3C2=O)C(=O)N1 (stereo partly drawn)",
    "DC50": "> 30 nM"
  },
  {
    "COMPOUND": "COc1cc(N2CC3(CN(CCc4ccc(-c5cnc6[nH]cc(C(=O)c7c(F)ccc(NS(=O)(=O)N8CC[C@@H](F)C8)c7F)c6c5)cc4)C3)C2)cc2c1C(=O)N(C1CCC(=O)NC1=O)C2 (stereo partly drawn)",
    "DC50": "1 to 10 nM"
  }
]

Would you kindly share the measured DC50 for O=C1CCC(N2Cc3cc(N4CCN(CC5CN(c6ccc(-c7cnc8[nH]cc(C(=O)c9c(F)ccc(NS(=O)(=O)N%10CC[C@@H](F)C%10)c9F)c8c7)cn6)C5)CC4)ccc3C2=O)C(=O)N1 (stereo partly drawn) ? 1 to 10 nM

----------
molecular target: BRAF V600E (Homo sapiens, UniProt P15056, V600E); construct: expressed in transfected cells; assay: Cellular assay of target protein degradation, T-Rex 293 cells stably transfected with HA-BRAF_V600E (HA immunofluorescence, high content imaging); type: cell-based; conditions: maximum degradation observed, T-Rex 293 HA-BRAF V600E
Sequence (P15056 whole entry V600E): as the sequence (P15056 whole entry G466V) above, with V466G, V600E counted along it
// reported Dmax per item

[
  {
    "COMPOUND": "O=C1CCC(N2Cc3cc(C4CCN(CC[C@H]5CCN(c6ccc(-c7cnc8[nH]cc(C(=O)c9c(F)ccc(NS(=O)(=O)N%10CC[C@@H](F)C%10)c9F)c8c7)cc6)C5)CC4)ccc3C2=O)C(=O)N1 (some centres unmarked)",
    "Dmax": "35 to 70%"
  },
  {
    "COMPOUND": "O=C1CC[C@H](N2Cc3cc(N4CCC(CN5CCN(c6ccc(-c7cnc8[nH]cc(C(=O)c9c(F)ccc(NS(=O)(=O)N%10CC[C@@H](F)C%10)c9F)c8c7)cc6)CC5)CC4)ccc3C2=O)C(=O)N1",
    "Dmax": "35 to 70%"
  },
  {
    "COMPOUND": "O=C1CCC(NC(=O)c2ccc(OCCCCN3CCN(c4ccc(-c5cnc6[nH]cc(C(=O)c7c(F)ccc(NS(=O)(=O)N8CC[C@@H](F)C8)c7F)c6c5)cc4)CC3)cc2F)C(=O)N1 (some centres unmarked)",
    "Dmax": "< 35%"
  },
  {
    "COMPOUND": "O=C1CC[C@H](NC(=O)c2ccc(N3CCN(CCc4ccc(-c5cnc6[nH]cc(C(=O)c7c(F)ccc(NS(=O)(=O)N8CC[C@@H](F)C8)c7F)c6c5)cc4)CC3)cc2F)C(=O)N1",
    "Dmax": "> 70%"
  }
]

Would you kindly share the measured Dmax for O=C1CCC(N2Cc3cc(N4CCC(CN5CCN(c6ccc(-c7cnc8[nH]cc(C(=O)c9c(F)ccc(NS(=O)(=O)N%10CC[C@@H](F)C%10)c9F)c8c7)cc6F)CC5)CC4)ccc3C2=O)C(=O)N1 (some centres unmarked) ? 35 to 70%

----------
biological target: BRAF G466V (Homo sapiens, UniProt P15056, G466V); construct: expressed in transfected cells; assay: Cellular assay of target protein degradation, T-Rex 293 cells stably transfected with HA-BRAF G466V (HA immunofluorescence, high content imaging); type: cell-based; conditions: maximum degradation observed, T-Rex 293 HA-BRAF G466V
READOUT_TYPE: Dmax

[
  {
    "MOLECULE": "C[C@@]12CN(CC3CCN(c4ccc5c(c4)CN(C4CCC(=O)NC4=O)C5=O)CC3)C[C@]1(C)CN(c1ccc(-c3cnc4[nH]cc(C(=O)c5c(F)ccc(NS(=O)(=O)N6CC[C@@H](F)C6)c5F)c4c3)cc1)C2 (stereo partly drawn)",
    "READOUT_TYPE": "Dmax",
    "ENDPOINT_RESULT": "35 to 70%"
  },
  {
    "MOLECULE": "O=C1CC[C@H](N2Cc3cc(N4CCC(CN5CCN(c6ccc(-c7cnc8[nH]cc(C(=O)c9c(F)ccc(NS(=O)(=O)N%10CC[C@@H](F)C%10)c9F)c8c7)cc6)CC5)CC4)ccc3C2=O)C(=O)N1",
    "READOUT_TYPE": "Dmax",
    "ENDPOINT_RESULT": "> 70%"
  },
  {
    "MOLECULE": "O=C1CCC(N2Cc3cc(N4CCC(CN5CCN(C6(c7ncc(-c8cnc9[nH]cc(C(=O)c%10c(F)ccc(NS(=O)(=O)N%11CC[C@@H](F)C%11)c%10F)c9c8)cn7)CC6)CC5)CC4)ccc3C2=O)C(=O)N1 (stereo partly drawn)",
    "READOUT_TYPE": "Dmax",
    "ENDPOINT_RESULT": "35 to 70%"
  },
  {
    "MOLECULE": "O=C1CC[C@H](N2Cc3cc(C4CCN(CC5CCN(c6ccc(-c7cnc8[nH]cc(C(=O)c9c(F)ccc(NS(=O)(=O)N%10CC[C@@H](O)C%10)c9F)c8c7)cc6)CC5)CC4)ccc3C2=O)C(=O)N1",
    "READOUT_TYPE": "Dmax",
    "ENDPOINT_RESULT": "35 to 70%"
  },
  {
    "MOLECULE": "O=C1CCC(N2Cc3cc(N4CC(CN5CCN(Cc6ccc(-c7cnc8[nH]cc(C(=O)c9c(F)ccc(NS(=O)(=O)N%10CC[C@@H](F)C%10)c9F)c8c7)cc6)CC5)C4)ccc3C2=O)C(=O)N1 (stereo partly drawn)",
    "READOUT_TYPE": "Dmax",
    "ENDPOINT_RESULT": "> 70%"
  }
]

Lab note: need Dmax with BRAF G466V (Homo sapiens, UniProt P15056, G466V) for entry `CCc1c(NS(=O)(=O)N2CC[C@@H](F)C2)ccc(F)c1C(=O)c1c[nH]c2ncc(-c3ccc(N4CCC(CN5CCC(c6ccc7c(c6)CN([C@H]6CCC(=O)NC6=O)C7=O)CC5)CC4)cc3)cc12` , please look it up. 35 to 70%

// repeat for `O=C1CC[C@H](N2Cc3cc(C[C@H](O)CN4CCC(c5ccc(-c6cnc7[nH]cc(C(=O)c8c(F)ccc(NS(=O)(=O)N9CC[C@@H](F)C9)c8F)c7c6)cc5)CC4)ccc3C2=O)C(=O)N1` and report > 70%

// repeat for `O=C1CC[C@H](N2Cc3cc(C4CCN(CC5CCN(c6ccc(-c7cnc8[nH]cc(C(=O)c9c(Cl)ccc(NS(=O)(=O)N%10CC[C@@H](F)C%10)c9Cl)c8c7)cc6)CC5)CC4)ccc3C2=O)C(=O)N1` and report 35 to 70%

// repeat for O=C1CCC(N2Cc3cc(N4CC(CN5CCN(C6CCN(c7ccc(-c8cnc9[nH]cc(C(=O)c%10c(F)ccc(NS(=O)(=O)N%11CC[C@@H](F)C%11)c%10F)c9c8)cc7)CC6)CC5)C4)ccc3C2=O)C(=O)N1 (stereo partly drawn) and report 35 to 70%
